Tested on: SK-MEL-5 melanoma
method-summary: NCI tumour cell line growth inhibition, 48 h
Quick rule for you: TGI at 30 µM or higher means 1 (yes), lower means 0 (no).

NC(=O)c1c2c(n3ccccc13)C(=O)c1ccccc1C2=O : 1 (yes)
NC(=O)NC(=O)c1cccc(NC(=O)CI)c1 : 0 (no)
Oc1ccccc1N=Cc1c(O)ccc2ccccc12 : 1 (yes)
Cc1cn(C2CC(n3cncn3)C(C(C)O)O2)c(=O)[nH]c1=O (configuration not stated) : 1 (yes)
Cc1ccccc1OCC(COC(=O)Nc1ccccc1)OC(=O)Nc1ccccc1 (configuration not stated) : 1 (yes)

Challenge: For this compound, is measured TGI 30 µM or higher? `Cc1ncc(CO)c(C=NCCCCCCN=Cc2c(CO)cnc(C)c2[O-])c1[O-].[Cu+2]`
Response given: 1 (yes)

Challenge: Determine whether this compound has TGI no lower than 30 µM: `CS(=O)(=O)Nc1ccc(Nc2c3ccccc3nc3cc(N)ccc23)cc1`
Response given: 0 (no)

Challenge: Could you tell me if the measured TGI of `O=C(Nc1ccc(Cl)cc1)Nc1ccc(Oc2nncc3ccccc23)cc1` reaches 30 µM or more?
Response given: 0 (no)

Challenge: Confirm if TGI reported for the compound `Cc1ccc(NCCN2CCCCC2)c2c(=O)c3ccccc3sc12` is 30 µM or above.
Response given: 0 (no)

---

Assignment: determine reported TGI for the given molecules.
System: SNB-75 CNS
method-summary: NCI tumour cell line growth inhibition, 48 h

See these solved cases before continuing.
COC(=O)[C@@]12CCCC(=O)[C@@H]1[C@H]1CCC[C@H]12 : > 100 µM
CCCCN(C(=O)c1ccccc1)C1CCC(=O)c2[nH]c3ccccc3c21 (stereo not given) : 75.2 µM

List TGI for every entry below, keeping the order given.
1. O=C1C(=O)c2c(O)ccc(O)c2C(O)=C1Cl
2. N#Cc1c(-c2ccc(Cl)cc2)cc(-c2ccc(Nc3ccnc4cc(C(F)(F)F)ccc34)cc2)nc1N
3. Cn1c2c(c3ccc(-c4ccn[nH]4)cc3c1=O)C(=O)c1ccccc1-2
4. Cn1c(=O)c2c3ccccc3c(C(=O)c3ccccc3)n2c2ccccc21
5. CC1=NN(c2nc(N)nc(COCc3nc(N)nc(N4N=C(C)CC4(C)C)n3)n2)C(C)(C)C1

Response given:
["> 100 µM", "46.2 µM", "> 100 µM", "15 µM", "> 100 µM"]

Record TGI per entry; entries follow.
1. COc1ccc2c(c1)OCC1c3cc(O)ccc3OC21 (stereo not given)
2. CCCOP1(=O)C=CC(Cl)=C(C)C1 (stereo not given)
3. CCOC(=O)C1N(S(=O)(=O)c2ccc(C)cc2)CCC12c1ccccc1NC2c1ccc(OC)c(OC)c1 (stereo not given)

Response given:
1. > 100 µM
2. > 100 µM
3. > 100 µM

---

Provide the reported TGI of each item.
Tested on: 786-0 renal
method-summary: NCI tumour cell line growth inhibition, 48 h

Cc1ccc(C(N)=Nc2ccccc2)cc1 : > 100 µM
COC(=O)[C@@]12CCCC(=O)[C@@H]1[C@H]1CCC[C@H]12 : > 100 µM
O=C(CSc1nccc(=O)[nH]1)c1ccccc1 : > 100 µM

// each molecule listed below needs its TGI
1. C/C=C(\C)C(=O)O[C@H]1C=CC(=O)O[C@H]1CC[C@H](O)[C@H](C)O
2. CC1=C(C(=O)NNC(=O)c2ccccc2)CC(C(=O)NNC(=O)c2ccccc2)=C(C)N1
3. CC(C)CCC[C@@H](C)[C@H]1CCC2C3=CCn4c(=O)ccc(=O)n4C3CC[C@@]21C (stereo partly drawn)

Response given:
1: 12.8 µM; 2: > 100 µM; 3: 2.18 µM

For every record below, what is its TGI?
1. CN(C)CCc1ccc(Cl)cc1Cl
2. O=C1/C(=C/c2cccc([N+](=O)[O-])c2)N=C(c2ccccc2)N1c1nc2c(Cl)cc(Cl)cc2s1

Response given:
1. > 100 µM
2. > 100 µM

Values from PubChem BioAssay (NCI)
